Give Percent Effect for every item shown.
biological target: Aspartate--tRNA(Asp/Asn) ligase (Mycobacterium tuberculosis (strain ATCC 25618 / H37Rv)) (UniProt P9WFW3); experiment: Assay for Asp RNA synthetase-1 from Mycobacterium tuberculosis; type: functional; parameters: scale not given: in the data most compounds retested in dose-response had high values; details: 30 µM
Sequence (P9WFW3 whole entry): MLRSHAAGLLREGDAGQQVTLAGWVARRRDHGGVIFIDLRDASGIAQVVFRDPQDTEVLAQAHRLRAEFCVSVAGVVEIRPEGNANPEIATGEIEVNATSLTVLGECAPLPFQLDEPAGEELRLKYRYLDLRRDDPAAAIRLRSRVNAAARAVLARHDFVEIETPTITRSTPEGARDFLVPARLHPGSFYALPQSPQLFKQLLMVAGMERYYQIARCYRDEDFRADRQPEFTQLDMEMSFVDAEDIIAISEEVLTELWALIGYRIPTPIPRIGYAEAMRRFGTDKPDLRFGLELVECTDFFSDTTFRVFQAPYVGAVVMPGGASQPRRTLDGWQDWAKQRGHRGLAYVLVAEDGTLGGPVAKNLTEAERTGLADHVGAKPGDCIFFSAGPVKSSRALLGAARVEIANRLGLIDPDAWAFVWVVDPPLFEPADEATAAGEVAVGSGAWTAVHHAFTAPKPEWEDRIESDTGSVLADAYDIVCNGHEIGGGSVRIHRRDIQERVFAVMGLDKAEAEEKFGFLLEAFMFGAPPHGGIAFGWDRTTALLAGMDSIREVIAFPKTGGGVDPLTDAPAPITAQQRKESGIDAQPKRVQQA
Give bare numbers, in %.

Recorded Percent Effect, per entry:
CCc1n[nH]c(C2CN(C(=O)c3cnns3)CCO2)n1 (centres undefined) :: -0.228
c1cnc(-c2nc(CNCCn3cccn3)cs2)nc1 :: -1.5
CC(C)NC(=O)N1C[C@H]2C[C@H](C(=O)NCc3ccccc3)[C@@H](C1)O2 :: 2.3
Cc1cc(C)c(CNC(=O)N(C)CC2CCCCO2)c(=O)[nH]1 (centres undefined) :: 2.7
O=C(O)C(c1ccc2c(c1)OCO2)N1CCC(C(=O)N2CCCC2)CC1 (centres undefined) :: -0.103

For each of the compounds below, note its Percent Effect.
1. COCCc1noc(CN(C)C2CCCN(c3ccc(C)nn3)C2)n1 (centres undefined)
2. NC(=O)c1cccc(CC2CCN(C(=O)CCCN3CCOCC3)C2)c1 (centres undefined)
3. O=C(CCc1cc(O)no1)N1CCCC(COc2ccc(F)cc2)C1 (centres undefined)
4. OCC1CCCN1c1cc(NCCNc2ccccn2)ncn1 (centres undefined)
5. Cc1ccc(NS(=O)(=O)c2cc3c(c(C(=O)O)c2)OCCO3)c(F)c1

*A*
1: 0.172; 2: 6.21; 3: -2.45; 4: 8.62; 5: -2.58

Reference source for all entries: ChEMBL document CHEMBL3988442
